# system-tested: Cin5 (UniProt P40917)
# Sequence: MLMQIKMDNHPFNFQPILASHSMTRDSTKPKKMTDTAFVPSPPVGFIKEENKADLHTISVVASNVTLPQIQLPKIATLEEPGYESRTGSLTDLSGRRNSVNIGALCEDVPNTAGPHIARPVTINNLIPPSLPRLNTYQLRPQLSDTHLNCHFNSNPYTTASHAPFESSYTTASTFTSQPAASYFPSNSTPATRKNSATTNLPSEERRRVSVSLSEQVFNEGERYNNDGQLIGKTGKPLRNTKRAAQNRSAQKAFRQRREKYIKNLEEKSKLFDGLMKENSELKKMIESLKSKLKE
# assay-summary: PBM E-score (8-mer binding enrichment) (E-score (-0.5 to 0.5)); higher = stronger / more preferred TF binding
# details: protein concentration: 100 nM; construct: GST-full length
The full ranking holds about 33,000 sequences; the median of “E-score (-0.5 to 0.5)” is about -0.0059, and the highest 2% start at about 0.26. Many of the other results were omitted from the sample, so the highest values are more common in it than they were.
Param threshold (0.1) applies to PBM E-score; output 1 (yes) when value >= threshold, 0 (no) when value < threshold.

[[record]]
sequence_content = "ATGGAACA"
system_tested = "Cin5 (UniProt P40917)"
discrete_label = "0 (no)"

[[record]]
sequence_content = "AGTAATTG"
system_tested = "Cin5 (UniProt P40917)"
discrete_label = "1 (yes)"

[[record]]
sequence_content = "ATACAATC"
system_tested = "Cin5 (UniProt P40917)"
discrete_label = "1 (yes)"

[[record]]
sequence_content = "CATTTTAA"
system_tested = "Cin5 (UniProt P40917)"
discrete_label = "0 (no)"

[[record]]
sequence_content = "CATTTTAG"
system_tested = "Cin5 (UniProt P40917)"
discrete_label = "1 (yes)"

[[record]]
sequence_content = "CCTTCGTC"
system_tested = "Cin5 (UniProt P40917)"
discrete_label = "0 (no)"


Exam item: Would you say `CACTGTAC` shows PBM E-score at minimum 0.1?
Marked response: 0 (no)

Exam item: Tell me whether PBM E-score is at least 0.1 here: `ACTAAAGA`
Marked response: 0 (no)

Exam item: Entry `ATTGTCTC` : is its PBM E-score no less than 0.1?
Marked response: 0 (no)

Exam item: Hi, just wondering whether `AAAAGCTG` shows PBM E-score of 0.1 or higher.
Marked response: 0 (no)

Exam item: Does `AGTCTGGA` have a reported PBM E-score of at least 0.1?
Marked response: 0 (no)

Exam item: Does PBM E-score meet or surpass 0.1 for `AGACAATC` ?
Marked response: 1 (yes)

Exam item: PBM E-score >= 0.1 for `GTAATTAA` ?
Marked response: 1 (yes)

Exam item: Hello, I need to know if `ATCCAACA` has measured PBM E-score not below 0.1. Thanks!
Marked response: 0 (no)

Exam item: Has `GTAATTAC` a recorded PBM E-score greater than or equal to 0.1?
Marked response: 1 (yes)

Exam item: Evaluate `AAACAATT` : PBM E-score at minimum 0.1?
Marked response: 1 (yes)

Exam item: Test whether the sequence `GAACAATA` records PBM E-score of 0.1 or higher.
Marked response: 1 (yes)

Exam item: hey, is PBM E-score for this one >= 0.1? `AAACAATA`
Marked response: 1 (yes)

Exam item: decide whether the reported PBM E-score for `ACTTTTAA` is at least 0.1.
Marked response: 0 (no)

Exam item: Could you verify whether the entry `AGACAATG` shows PBM E-score of no less than 0.1?
Marked response: 0 (no)

Exam item: // inclusive: PBM E-score at least 0.1? input: `ACAATTAT`
Marked response: 1 (yes)

Exam item: Test whether the sequence `ATTGTCTA` records PBM E-score of 0.1 or higher.
Marked response: 1 (yes)

This collection of values is drawn from the supplement of paper PMC3334620.
